Entry source: paper PMC10816934

Tested on: B16 murine melanoma cell line
ASSAY METHOD TEXT: In vitro antiproliferative activity, MTT assay
Assay type: cell-based, mouse
REPORTED CONDITIONS: Mus musculus, MTT assay, 0.8–100 μM in serum-free medium 24 h, then 48 h culture, mean ± SD of two or three independent experiments

MOLECULE	IC50, nM
COc1cccc2c1C(=O)c1c(O)c3c(c(O)c1C2=O)C[C@@](O)(C(C)=O)C[C@@H]3O[C@H]1C[C@H](N)[C@H](O)[C@H](C)O1 [Dau, daunomycin, reference compound]	26

* * *

Test system: OCM-3 cells
ASSAY METHOD TEXT: In vitro cytostatic effect, PrestoBlue assay
Assay type: cell-based, human
REPORTED CONDITIONS: Homo sapiens; OCM-3; PrestoBlue; 0.003–200 μM in serum-free medium 72 h; mean ± SEM of three independent experiments

COMPOUND	IC50
COc1cccc2c1C(=O)c1c(O)c3c(c(O)c1C2=O)C[C@@](O)(C(C)=O)C[C@@H]3O[C@H]1C[C@H](N)[C@H](O)[C@H](C)O1 [Dau, daunomycin, reference compound]	560 nM
